test: In-vivo pharmacokinetic study in beagle dogs; design: species or system male beagle dogs; details: dog, plasma, po, intragastric administration, 1 mg/kg
Parameter Measured: half-life (min)

COc1cc2c(cc1S(=O)(=O)Nc1noc3cc(Cn4cccn4)nc(OC)c13)CCCO2    2720

---

assay: In-vivo pharmacokinetic study in beagle dogs; set-up: species or system male beagle dogs; details: male, beagle, dog, plasma, po, 0.6 mg/kg, intragastric administration
Parameter Measured: half-life (h)

COc1cc2c(cc1S(=O)(=O)Nc1noc3cc(Cn4cccn4)nc(OC)c13)CCCC2    173

---

experiment: In-vivo pharmacokinetic study in beagle dogs; set-up: species or system male beagle dogs; details: male, dog, plasma, po, intragastric administration, 0.6 mg/kg
Parameter Measured: AUC(0-inf) (µg·h/mL)

COc1cc2c(cc1S(=O)(=O)Nc1noc3cc(Cn4cccn4)nc(OC)c13)CCCC2    379

---

experiment: In-vivo pharmacokinetic study in beagle dogs; design: species or system male beagle dogs; conditions: male, dog, plasma, po, intragastric administration, 1 mg/kg, read-out: AUC0-48h
Parameter Measured: AUC(0-t) (ng·h/mL)

COc1cc2c(cc1S(=O)(=O)Nc1noc3cc(Cn4cccn4)nc(OC)c13)OCC2    55500
COc1ccc2c(c1S(=O)(=O)Nc1noc3cc(Cn4cccn4)nc(OC)c13)OCC2    114000
COc1ccc2ccoc2c1S(=O)(=O)Nc1noc2cc(Cn3cccn3)nc(OC)c12    46700

---

Measured Cmax of individual entries
assay: In-vivo pharmacokinetic study in rats; design: species or system SD female rats; conditions: female, SD, rat, plasma, po, intragastric administration, 5 mg/kg
Parameter Measured: Cmax (ng/mL)

COc1nc(Cn2cccn2)cc2onc(NS(=O)(=O)c3cccc4c3ccn4C)c12    31600
COc1cc2c(cc1S(=O)(=O)Nc1noc3cc(Cn4cccn4)nc(OC)c13)OCC2    16500
COc1cc2cccnc2cc1S(=O)(=O)Nc1noc2cc(Cn3cccn3)nc(OC)c12    10800

---

Experiment: In-vivo pharmacokinetic study in rats
Design: species or system SD female rats
Conditions: female, SD, rat, plasma, po, intragastric administration, 5 mg/kg
Description: 1.1 Instrument: high-performance liquid chromatograph: SHIMADZU LC-30AD; mass spectrum: AB SCIEX mass spectrometer Triple Quad 5500; all measured data were calculated and processed using Microsoft Excel, and relevant pharmacokinetic parameters were calculated using WinNonlin software. The main obtained kinetic parameters are Tmax, T1/2, Cmax, AUC0-24 h, and AUCinf. […] Sample injection amount: 1 µL. 1.2 Animals: three SD female rats were used. The body weight range was 180-300 g. […]
Just a reminder that ties go to NO: only AUC(0-inf) strictly below 30000 ng·h/mL counts as YES.

COc1cc2c(cc1S(=O)(=O)Nc1noc3cc(Cn4cccn4)nc(OC)c13)CCO2 [Example 60]    YES
COc1cc2c(cc1S(=O)(=O)Nc1noc3cc(Cn4cccn4)nc(OC)c13)OCC2 [Example 59]    NO
COc1ccc2c(c1S(=O)(=O)Nc1noc3cc(Cn4cccn4)nc(OC)c13)OCC2 [Example 9]    NO
COc1ccc2ccoc2c1S(=O)(=O)Nc1noc2cc(Cn3cccn3)nc(OC)c12 [Example 10]    NO
COc1nc(Cn2cccn2)cc2onc(NS(=O)(=O)c3cccc4c3OCCO4)c12 [Example 4]    YES
COc1ccc2cccnc2c1S(=O)(=O)Nc1noc2cc(Cn3cccn3)nc(OC)c12 [Example 11]    NO
COc1cc2c(cc1S(=O)(=O)Nc1noc3cc(Cn4cccn4)nc(OC)c13)CCCC2 [Example 2]    NO

Where do these numbers come from? They come from patent EP4692094A1.
